Cited source: patent US9078843B2

Tested on: IgM in sera
Test: Antigen microarray, serum IgM binding to TCR gamma constant region peptides
Design: species or system human
Conditions: LUNG CANCER, mean of 9 subjects; serum 1:5
OBSERVED PROPERTY: Antigen Binding (Mean Intensity) IgM
Numbers only.

> print(dat)
                         query.sequence                     observed.property  observed.value
1        KEHRCIVDTLLLQL [SEQ ID NO:165]  Antigen Binding (Mean Intensity) IgM             103
2  VVYFAIITCCLLRRTAFCCN [SEQ ID NO:167]  Antigen Binding (Mean Intensity) IgM             512
3  AYYMYLLLLLKSVVYFAIIT [SEQ ID NO:166]  Antigen Binding (Mean Intensity) IgM             140
4           DQEIIFPPIKT [SEQ ID NO:161]  Antigen Binding (Mean Intensity) IgM             160
5       KPTIFLPSSWLTVPE [SEQ ID NO:164]  Antigen Binding (Mean Intensity) IgM              86

Now consider a different sequence.
Enter reported Antigen Binding (Mean Intensity) IgM observed with IgM in sera for KAGTYLCLLEKFFPDVIKI [SEQ ID NO:158]
2381
